Measured values drawn from patent US5122523A for this set.

Protocol notes: Absorption test by oral administration in rats (plasma concentration)
Assay type: in vivo
Measurement setup: rat, rats (n=4), 10 mg/kg oral, 1/2 hrs, read-out: Concentration of the compound in plasma
Assay readout: concentration at 0.5 h (ng/mL)
Report as a plain number; the unit ng/mL is understood.

stdin: Provide one value: measured concentration at 0.5 h of CCCC[C@H](NC(=O)C(Cc1cccc2ccccc12)CS(=O)(=O)CC)C(=O)N[C@@H](CC1CCCCC1)[C@@H](O)[C@H](O)CN1CCOCC1 (mixture of isomers)
stdout: 267

###

System: human plasma renin (Homo sapiens)
Protocol notes: Renin inhibiting activities (human plasma, angiotensin I by radioimmunoassay)
Measurement setup: pH7.4, 37° C., one hour
Assay readout: IC50 (nM)
Report as a plain number; the unit nM is understood.

stdin: Provide one value: measured IC50 of CCCC[C@H](NC(=O)[C@@H](CSc1ncccn1)Cc1cccc2ccccc12)C(=O)N[C@@H](CC(C)C)[C@@H](O)CC(CC)C(=O)NCC(C)C (mixture of isomers) [Example 6]
stdout: 1.6

stdin: Provide one value: measured IC50 of CCCC[C@H](NC(=O)C(Cc1cccc2ccccc12)CS(=O)(=O)CC)C(=O)N[C@@H](CC(C)C)[C@@H](O)CC(CC)C(=O)NCC(C)C (single isomer, unassigned) [Example 1]
stdout: 0.5

stdin: Provide one value: measured IC50 of CCCC[C@H](NC(=O)C(Cc1cccc2ccccc12)CS(=O)(=O)c1ncccn1)C(=O)N[C@@H](CC(C)C)[C@@H](O)CC(CC)C(=O)NCC(C)C (single isomer, unassigned) [Example 2]
stdout: 0.17

stdin: Provide one value: measured IC50 of CCCC[C@H](NC(=O)[C@H](Cc1cccc2ccccc12)CS(=O)(=O)CC)C(=O)N[C@@H](CC(C)C)[C@@H](O)[C@@H](O)CN1CCOCC1 [Example 19]
stdout: 8.3

stdin: Provide one value: measured IC50 of CCCC[C@H](NC(=O)[C@@H](Cc1cccc2ccccc12)CS(=O)(=O)CC)C(=O)N[C@@H](CC(C)C)[C@@H](O)C[C@@H](CC)C(=O)NCCN1CCOCC1 (single isomer, unassigned) [Example 8]
stdout: 1.5

###

System: human plasma renin (Homo sapiens)
Sequence (P00797 67-406): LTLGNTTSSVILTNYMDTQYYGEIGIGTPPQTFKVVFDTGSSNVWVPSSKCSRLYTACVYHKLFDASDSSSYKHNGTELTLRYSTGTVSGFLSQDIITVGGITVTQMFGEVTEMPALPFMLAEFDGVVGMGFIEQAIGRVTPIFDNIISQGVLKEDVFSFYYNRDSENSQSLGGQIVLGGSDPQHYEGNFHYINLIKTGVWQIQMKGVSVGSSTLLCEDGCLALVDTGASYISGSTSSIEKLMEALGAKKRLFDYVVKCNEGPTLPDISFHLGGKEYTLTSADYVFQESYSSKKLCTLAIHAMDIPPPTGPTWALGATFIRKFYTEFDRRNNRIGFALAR
Protocol notes: Renin inhibiting activities (human plasma, angiotensin I by radioimmunoassay)
Measurement setup: pH7.4, 37° C., one hour
Method: TEST EXAMPLE 1: Renin inhibiting activities To 156 μl of a 0.2M sodium phosphate buffer solution (pH7.4), 40 μl of a solution mixture of 34 mM 8-hydroxyquinoline and 100 mM disodium ethylenediamine tetraacetate, 4 μl of dimethyl sulfoxide or a dimethyl sulfoxide solution of an inhibitor and 200 μl of human plasma were added and reacted at 37° C. for one hour. […]
Assay readout: IC50
Reply with a number, then the unit it belongs to.

stdin: Provide one value: measured IC50 of CC(C)[S+]([O-])C[C@@H](Cc1cccc2ccccc12)C(=O)N[C@@H](Cc1c[nH]cn1)C(=O)N[C@@H](CC1CCCCC1)[C@@H](O)[C@@H](O)CN1CCOCC1 (some centres unmarked) [Example 35]
stdout: 5.9 nM

stdin: Provide one value: measured IC50 of CCCC[C@H](NC(=O)[C@@H](CSc1ncccn1)Cc1cccc2ccccc12)C(=O)N[C@@H](CC1CCCCC1)[C@@H](O)[C@@H](O)CN1CCOCC1 [Example 40]
stdout: 5.3 nM

stdin: Provide one value: measured IC50 of CCCC[C@H](NC(=O)[C@H](Cc1cccc2cccnc12)CS(=O)(=O)CC)C(=O)N[C@@H](CC(C)C)[C@@H](O)CC(CC)C(=O)NCC(C)C (mixture of isomers) [Example 10]
stdout: 2 nM

stdin: Provide one value: measured IC50 of CCCC[C@H](NC(=O)[C@H](Cc1cccc2ccccc12)CS(=O)(=O)C(C)(C)C)C(=O)N[C@@H](CC1CCCCC1)[C@@H](O)[C@@H](O)CN1CCOCC1 [Example 38]
stdout: 5.9 nM

stdin: Provide one value: measured IC50 of CCCC[C@H](NC(=O)C(Cc1cccc2ccccc12)CS(=O)(=O)CCO)C(=O)N[C@@H](CC1CCCCC1)[C@@H](O)[C@@H](O)CN1CCOCC1 (single isomer, unassigned) [Example 36]
stdout: 2.7 nM

stdin: Provide one value: measured IC50 of CCS(=O)(=O)C[C@@H](Cc1cccc2ccccc12)C(=O)N[C@@H](Cc1c[nH]cn1)C(=O)N[C@@H](CC1CCCCC1)[C@@H](O)[C@@H](O)CN1CCOCC1 [Example 31]
stdout: 4.2 nM

stdin: Provide one value: measured IC50 of CCCC[C@H](NC(=O)[C@H](Cc1ccccc1)CS(=O)(=O)Cc1ccco1)C(=O)N[C@@H](CC1CCCCC1)[C@@H](O)[C@@H](O)CN1CCOCC1 [Example 56]
stdout: 2 nM

stdin: Provide one value: measured IC50 of CCC(C[C@H](O)[C@H](CC(C)C)NC(=O)[C@H](Cc1c[nH]cn1)NC(=O)[C@H](Cc1cccc2ccccc12)CS(=O)(=O)CC)C(=O)NCC(C)C (mixture of isomers) [Example 15]
stdout: 0.5 nM
